- Assayed target: T1, Recombinant human Fc-tagged extracellular domain of LILRB1 (human, UniProt Q8NHL6 24-461)
- T1 construct: extracellular domain; Bought from R&D Systems; also called LILRB1-Fc; not shown: Fc tag
- T1 sequence (Q8NHL6 24-461): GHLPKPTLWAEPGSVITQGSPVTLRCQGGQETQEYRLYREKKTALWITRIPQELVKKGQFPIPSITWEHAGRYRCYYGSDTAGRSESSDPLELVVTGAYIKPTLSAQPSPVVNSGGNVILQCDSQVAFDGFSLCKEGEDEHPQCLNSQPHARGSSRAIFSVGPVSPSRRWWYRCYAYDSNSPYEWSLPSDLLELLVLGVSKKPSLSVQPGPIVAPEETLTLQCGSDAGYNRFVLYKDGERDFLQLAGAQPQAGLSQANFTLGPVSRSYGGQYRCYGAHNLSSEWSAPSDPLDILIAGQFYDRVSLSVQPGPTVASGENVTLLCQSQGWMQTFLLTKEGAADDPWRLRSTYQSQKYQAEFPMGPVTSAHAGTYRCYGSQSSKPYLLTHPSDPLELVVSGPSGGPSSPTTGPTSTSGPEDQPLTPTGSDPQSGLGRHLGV
- Test details: SPR, Biacore X100; LILRB1-Fc amine-coupled to CM5 chip, antibody injected at 3.7-300 nM
Assignment: determine reported -log(Kd) for the given binders.
Write the number on its own, no unit after it.

Looking for the measured -log(Kd) of 4H5 (antibody, V domains shown, Entries are printed with leader peptide and part of the mouse constant region; also called LILRB1 antibody 4H5) VH: QIQLQQSGPELVKPGASVKISCKASGYTFTDYYINWVKQRPGQGLEWIGWIYPGGDNTKYNEKFKDKATLTVDTSSSTTYMQLSSLTSEDSAVYFCARFEDKYSSNYWFAYWGQGTLVTVSA VL: DILLTQSPAILSVSPGERVSFSCRASQYIGTSIHWYQQRTNGSPRLLIKYASESISGIPSRFSGSGSGTDFTLSINSVESEDVADYYCQQSNRWPFTFGSGTKLEIKR , can you help?
12.6

Here is the next binder: 6A6 (antibody, V domains shown, Entries are printed with leader peptide and part of the mouse constant region; also called LILRB1 antibody 6A6) VH: QVQLQQSGPELVKPGASVKISCKASGYSFTSSYIHWVKQRPGQGLEWIGWIYPGSGNTKYNERFKGKATLTADTSSSTAYMHLSSLTSEDSAVYYCARNYGTSYGWYFDVWGTGTTVTVSS VL: DIVMTQSQKFMSTTVGDRVSITCKASQNVGTAVAWYQQKPGQSPKLLIYSLSNRYTGVPDRFTGSGSGTDFTLTISNMQSEDLTDYFCQQYSSYPLTFGAGTKLELKR
7.98

// same read-out, input: 6B7 (antibody, V domains shown, Entries are printed with leader peptide and part of the mouse constant region; also called LILRB1 antibody 6B7) VH: QIQLVQSGPELKKPGETVKISCKASGYTFTNYGLSWVKQAPGKGLKWMGWINTYSGVTTYADDFKGRFAFSLETSASTAYLQINNLKSEDTATYFCARRSYDYSHYYAMDYWGQGTSVTVSS VL: ETTVTQSPASLSVATGEKVTIRCITSTDIDDDINWYQQKPGEPPKFLISEGNTLRPGVPSRFSSSGYGTDFVFTIENTLSEDVADYYCLQSNNMPYTFGGGTKLEIKR
6.58

For 1B10 (antibody, V domains shown, The entries called 'variable region' are printed with the leader peptide and part of the mouse constant region; also called LILRB1 antibody 1B10) VH: QVQLQQPGAELVKPGASVKLSCKASGYTFTNYWVQWVKQRPGQGLEWIGMIHPNSGSTNSNEKFKNKATLTVDRSSSTAYMQLSRLTSEDSAVYYCARGDDGYLYYFDYWGQGTTLTVSS VL: QIVLTQSPALMSASPGEKVTMTCSASSSVSHMYWYQQKPRSSPKPWIYLTSNLASGVPARFSGSGSGTSYSLTISNMEAEDAATYYCQQWSSYAFTFGSGTKLEIKR then?
8.13
